The reported measurements were obtained from PubChem BioAssay (NCI).

test system: K-562 leukemia; test: NCI tumour cell line growth inhibition, 48 h; in the data active = GI50 below about 0.43 µM; inactive = the rest
Field 'call' accepts class 1 (active), class 0 (inactive)

**Query** What outcome does the record of this test show for O=C(CSC(c1ccccc1)c1ccccc1)N/N=C/c1cccc(Cl)c1 ?
**Result** class 0

**Query** What outcome does the record of this test show for O=C(Nc1ccc(Cl)cc1F)c1cc(I)ccc1O ?
**Result** class 0

**Query** What outcome does the record of this test show for CNC(=O)c1ccc2cc(C3(O)CCn4cncc43)ccc2c1 (stereo not given) ?
**Result** class 0

**Query** What outcome does the record of this test show for CC(=O)OCC(=O)O[C@@H]1C[C@]2(C(C)C)O[C@@]1(C)[C@@H]1CC[C@@H](C)[C@H]1[C@@H]2OC(=O)/C=C/c1ccccc1 ?
**Result** class 0

**Query** What outcome does the record of this test show for O=c1cc(N2CCNCC2)oc2c(-c3ccccc3)cccc12 ?
**Result** class 0

**Query** What outcome does the record of this test show for O=C(CF)N(O)c1ccc(/C=C/c2ccccc2)cc1 ?
**Result** class 0

**Query** What outcome does the record of this test show for O=C1c2ccccc2C(=Cc2ccccc2)c2ccccc21 ?
**Result** class 0

**Query** What outcome does the record of this test show for COc1cnc2c(c1)C(=O)c1c-2n(CCCN2CCC(O)CC2)c(=O)c2cc(F)ccc12 ?
**Result** class 1

**Query** What outcome does the record of this test show for CC/C(=C(/CC)c1ccc([O-])cc1)c1ccc([O-])cc1.CC/C(=C(\CC)c1ccc([O-])cc1)c1ccc([O-])cc1.O=C([CH-]C(=O)c1ccccc1)c1ccccc1.O=C([CH-]C(=O)c1ccccc1)c1ccccc1.O=C([CH-]C(=O)c1ccccc1)c1ccccc1.O=C([CH-]C(=O)c1ccccc1)c1ccccc1.[Ti+4].[Ti+4] ?
**Result** class 0

**Query** What outcome does the record of this test show for COc1ccc2c(c1)C(=O)c1c-2c(Nc2ccc(C(C)=O)cc2)nc2ccccc12 ?
**Result** class 0

**Query** What outcome does the record of this test show for CC(C)(C)c1[nH]cnc1/C=c1\[nH]c(=O)/c(=C/c2ccccc2)[nH]c1=O ?
**Result** class 1

**Query** What outcome does the record of this test show for CCOC(=O)/C=C/c1cc2cc(-c3csc4ccccc34)ccc2[nH]1 ?
**Result** class 0

**Query** What outcome does the record of this test show for COC(=O)[C@]12CC[C@@H](C)[C@H](C)[C@@H]1C1=CC[C@@H]3[C@@]4(C)C(C=O)=C[C@@](C)(COC(=O)c5ccco5)[C@@H]4C(=O)C[C@@]3(C)[C@]1(C)CC2 ?
**Result** class 0

**Query** What outcome does the record of this test show for CN(C)c1ccc(/C=C(\C#N)c2nc3ccccc3n2C)cc1 ?
**Result** class 1

**Query** What outcome does the record of this test show for O=C(c1ccco1)c1nc2cc(F)ccc2[n+]([O-])c1C(F)(F)F ?
**Result** class 0
